The reported measurements were obtained from patent US8895571B2.

// values below are reported IC50
molecular target: Full length PKA (Homo sapiens, UniProt P17612); construct: Full length PKA (cat #P2912); purchased Invitrogen P2912; assay: PKA in vitro enzymatic assay (HTRF); format: biochemical; conditions: 0.035 nM enzyme solution, substrate solution with 5 mM ATP, 25° C. 1 hr

# count of solved cases: 5
{"columns": ["MOLECULE SMILES", "IC50"],
 "data": [
  ["CCSCc1cnn(C)c1-c1cc2c(cn1)C(=O)N([C@H](CN)Cc1cccc(F)c1)C2", "> 5 µM"],
  ["Cn1nccc1-c1ccc2c(n1)CN([C@H](CN)Cc1ccccc1)C2=O", "> 5 µM"],
  ["Cn1ncc(Cl)c1-c1ccc2c(c1)CN([C@H](CN)CC1CC1)C2=O", "> 5 µM"],
  ["Cc1cnn(C)c1-c1cc2c(cn1)C(=O)N([C@H](CN)Cc1cccc(F)c1)C2", "0.5 to 5 µM"],
  ["Cn1nccc1-c1cc2c(cn1)C(=O)N([C@H](CN)Cc1cc(F)cc(F)c1)C2", "0.5 to 5 µM"]
]}

Problem: Determine its reported IC50: `Cn1ncc(-c2cccc3ccccc23)c1-c1ccc2c(c1)CN([C@H](CN)Cc1cccc(F)c1)C2=O`
Solution: > 5 µM

Problem: Retrieve IC50 measured for `Cn1ncc(F)c1-c1ccc2c(c1)CN([C@H](CN)Cc1cccc(F)c1)C2=O` and print it.
Solution: 0.5 to 5 µM

Problem: Identify measured IC50 corresponding to `Cn1ncc(C#N)c1-c1ccc2c(c1)CN([C@H](CN)Cc1cccc(F)c1)C2=O`
Solution: > 5 µM

* * *

Observed IC50 for Full length Akt1 (Homo sapiens, UniProt P31749), reported per entry below.

Examples with their reported IC50 follow.
{"columns": ["COMPOUND", "IC50"],
 "data": [
  ["CSCc1cnn(C)c1-c1ccc2c(c1)CN([C@H](CN)Cc1cccc(F)c1)C2=O [Example 10]", "< 500 nM"],
  ["CN(C)C[C@H](Cc1cccc(F)c1)N1Cc2cc(-c3c(Cl)cnn3C)ccc2C1=O [Example 38]", "500 to 5000 nM"]
]}

Problem: Read the entry CC(C)OCc1cnn(C)c1-c1ccc2c(c1)CN([C@@H](CN)c1ccccc1)C2=O [Example 122] and write its reported IC50.
Solution: < 500 nM

Problem: Identify measured IC50 associated with Cn1nccc1-c1ccc2c(c1)CN([C@H](CN)Cc1cc(F)cc(F)c1)C2=O [Example 40]
Solution: < 500 nM

Problem: Respond only with IC50 recorded for Cn1ncc(Cl)c1-c1ccc2c(c1)CN([C@H](CN)Cc1cccc(-c3cncnc3)c1)C2=O [Example 74]
Solution: 500 to 5000 nM

Problem: Using known records, supply IC50 for Cn1ncc(-c2cccs2)c1-c1ccc2c(c1)CN([C@H](CN)Cc1cccc(F)c1)C2=O [Example 15]
Solution: 500 to 5000 nM

Problem: Give me measured IC50, please, for this compound: Cn1ncc(COCC2CC2)c1-c1ccc2c(c1)CN([C@H](CN)Cc1cc(F)cc(F)c1)C2=O [Example 48]
Solution: < 500 nM

* * *

System: UniProt P31751 | Read-out: pIC50
Sequence (P31751 whole entry): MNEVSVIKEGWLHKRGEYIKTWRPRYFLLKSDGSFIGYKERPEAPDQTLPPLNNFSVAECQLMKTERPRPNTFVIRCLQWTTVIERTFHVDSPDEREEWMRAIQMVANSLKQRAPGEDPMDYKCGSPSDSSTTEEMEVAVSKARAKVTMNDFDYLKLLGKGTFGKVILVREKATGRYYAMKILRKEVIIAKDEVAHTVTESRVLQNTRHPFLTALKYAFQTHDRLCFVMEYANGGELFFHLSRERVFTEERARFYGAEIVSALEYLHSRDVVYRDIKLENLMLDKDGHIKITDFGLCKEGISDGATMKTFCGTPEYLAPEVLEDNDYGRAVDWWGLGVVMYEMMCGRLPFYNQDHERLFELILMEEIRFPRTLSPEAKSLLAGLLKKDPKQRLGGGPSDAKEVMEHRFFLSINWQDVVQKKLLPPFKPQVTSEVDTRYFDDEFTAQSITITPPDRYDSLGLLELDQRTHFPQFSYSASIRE
pIC50: −log10 of the molar value.

// worked examples, pIC50 included
{"columns": ["COMPOUND", "pIC50"],
 "data": [
  ["CCn1nccc1-c1ccc2c(c1)CN([C@H](CN)Cc1cccc(F)c1)C2=O", "> 6.30"],
  ["Cn1ncc(Cl)c1-c1ccc2c(c1)CN([C@H](CN)Cc1cccc(F)c1)C2=O", "> 6.30"],
  ["Cn1ncc(Cl)c1-c1ccc2c(c1)CN([C@H](CNC1CCC1)Cc1cccc(F)c1)C2=O", "5.30 to 6.30"]
]}

Problem: Write down the reported pIC50 (system: UniProt P31751) of `COCc1cnn(C)c1-c1cc2c(cn1)C(=O)N([C@H](CN)Cc1cc(F)cc(F)c1)C2`
Solution: 5.30 to 6.30

Problem: Recall the reported pIC50 of `Cn1ncc(Cl)c1-c1ccc2c(c1)CN([C@H](CN)Cc1ccccc1)C2=O` when tested on UniProt P31751.
Solution: > 6.30

Problem: GET pIC50 where system = UniProt P31751 and item = `CSCc1cnn(C)c1-c1ccc2c(c1)CN([C@H](CN)Cc1ccccc1)C2=O`
Solution: 5.30 to 6.30

Problem: Send back UniProt P31751 pIC50 of `Cn1nccc1-c1ccc2c(c1)CN([C@H](CN)Cc1ccccn1)C2=O` only.
Solution: > 6.30

Problem: Jot down pIC50 (UniProt P31751) of `CC(C)OCc1cnn(C)c1-c1ccc2c(c1)CN([C@H](CN)Cc1ccccc1)C2=O` .
Solution: > 6.30

Problem: Find pIC50 for Cn1nccc1-c1ccc2c(c1)CN(C(CN)c1ccc(F)cc1)C2=O (centres unmarked) on UniProt P31751 and write it down.
Solution: 5.30 to 6.30

Problem: Provide measured pIC50 on UniProt P31751 for `Cn1ncc(Cl)c1-c1ccc2c(c1)CN([C@H](CN)Cc1cccc(-c3ccsc3)c1)C2=O` please.
Solution: 5.30 to 6.30

Problem: Recall the reported pIC50 of `Cn1nccc1-c1ccc2c(c1)CN([C@H](CN)CC1CCCCC1)C2=O` on UniProt P31751 and write it down.
Solution: > 6.30

Problem: Provide pIC50, system UniProt P31751, entry `CCOCc1cnn(C)c1-c1ccc2c(c1)CN([C@H](CN)Cc1cccc(F)c1)C2=O`
Solution: > 6.30

Problem: Under UniProt P31751: report pIC50 of `COCc1cnn(C)c1-c1ccc2c(c1)CN([C@H](CN)CC1CCCCC1)C2=O` .
Solution: 5.30 to 6.30

Problem: Lab note: UniProt P31751 assay, enter pIC50 for `Cn1ncc(Cl)c1-c1ccc2c(c1)CN([C@H](CN)Cc1cc(F)cc(F)c1)C2=O` here
Solution: > 6.30

Problem: Answer with pIC50 of `Cn1ncc(Cl)c1-c1ncc2c(n1)CN([C@H](CN)Cc1ccccc1)C2=O` measured for UniProt P31751.
Solution: 5.30 to 6.30

Problem: Write down the reported pIC50 (system: UniProt P31751) of `Cn1nccc1-c1ccc2c(c1)CN([C@H](CN)Cc1cscn1)C2=O`
Solution: 5.30 to 6.30

Problem: Report value only: pIC50, UniProt P31751, `Cn1ncc(Cl)c1-c1ccc2c(c1)CN([C@H](CN)Cc1cccc(-c3cccnc3)c1)C2=O`
Solution: < 5.30
